target: T1, MHC class 1 allele A*02:01; assay: REVEAL kinetic score, HLA-A*02:01
T1 construct: also called HLA-A2; HLA-A*02:01

[
  {
    "BINDER": "ALSVMGVYV (also called p223; M9-A2-223) [MAGE-A9 223 (MAGE-A9 peptide antigen 223, ALSVMGVYV)]",
    "Kinetic score": 13.1
  },
  {
    "BINDER": "KVAELVHFL (also called p111) [MAGE-A9 111 (MAGE-A9 peptide antigen 111, KVAELVHFL)]",
    "Kinetic score": 12.6
  },
  {
    "BINDER": "FLWGSKAHA (also called p270; M9-A2-270) [MAGE-A9 270 (MAGE-A9 peptide antigen 270, FLWGSKAHA)]",
    "Kinetic score": 12.7
  },
  {
    "BINDER": "LMLGEFLKL [SurA2.M (survivin peptide antigen HLA-A2, LMLGEFLKL)]",
    "Kinetic score": 12.8
  }
]

The values you see were collected from patent US20240390468A1.
